Please go through the items and note down their solvation free energy, 298 K.
- protocolText: solvent given as SMILES
- conditionLabel: in CCCCCCC
Express the result in kcal/mol but write the number alone.

Q) Suppose we examine the compound CC(C)O ; what solvation free energy, 298 K value has been reported?
A) -2.71

Q) Same for c1ccc2c(c1)Cc1ccccc1-2
A) -9.3

Q) Same for N
A) -1.27

Q) Same for CCN(CC)CC
A) -4.47

Q) Same for CCCCCC(=O)OC
A) -5.63

Q) Same for C=CC=C
A) -2.67

Q) Same for CCC1CCCCC1
A) -5.39

Q) Same for CCCC(C)=O
A) -4.07

Q) Same for CCCC
A) -2.54

Q) Same for CCCCCl
A) -3.96

Q) Same for Oc1ccccc1Br
A) -6.49

Q) Same for O=C1CCCC1
A) -4.53

Q) Same for Clc1c(Cl)c(Cl)c(Cl)c(Cl)c1Cl
A) -10.2

Q) Same for Oc1ccccc1Cl
A) -5.71

Q) Same for CCc1ccc(O)cc1
A) -6.47

Q) Same for C1COCCO1
A) -4.01

Q) Same for CCC#N
A) -2.86

Q) Same for NCCO
A) -2.5

Q) Same for Cc1ccc(O)c(O)c1
A) -7.05

Q) Same for C=CCCCC
A) -3.83

Q) Same for CCN
A) -2.09

Q) Same for Cc1ccccc1N
A) -6.22

Q) Same for CCC
A) -1.77

Q) Same for O=[N+]([O-])c1ccccc1O
A) -6.49

Q) Same for Ic1ccccc1
A) -6.27

Q) Same for CCCCCCCCN
A) -6.96

Q) Same for Nc1ccccc1
A) -5.38

Q) Same for CCCCCCCCO
A) -6.38

Q) Same for CCCOC(C)=O
A) -4.02

Q) Same for [HH]
A) 1.29

###

- protocolText: solvent given as SMILES
- conditionLabel: in CCCCO
Please go through the items and note down their solvation free energy, 298 K.
Express the result in kcal/mol but write the number alone.

Q) Suppose we examine the compound CC(C)C ; what solvation free energy, 298 K value has been reported?
A) -1.91

Q) Same for ClC(Cl)Cl
A) -4.02

Q) Same for O=C(c1ccccc1)C(O)c1ccccc1 (stereo not drawn)
A) -14.7

###

Please go through the items and note down their solvation free energy, 298 K.
- protocolText: solvent given as SMILES
- conditionLabel: in [2H]O[2H]
Express the result in kcal/mol but write the number alone.

Q) Suppose we examine the compound CCOC(=O)CC ; what solvation free energy, 298 K value has been reported?
A) -2.8

Q) Same for CCCCC=O
A) -2.89

Q) Same for CC(C)O
A) -4.86

Q) Same for CCCC(C)=O
A) -3.38

Q) Same for CCOC=O
A) -2.64

Q) Same for COC(C)(C)C
A) -2.15

Q) Same for CCCOC(C)=O
A) -2.84

###

Please go through the items and note down their solvation free energy, 298 K.
- protocolText: solvent given as SMILES
- conditionLabel: in CCOC(C)=O
Express the result in kcal/mol but write the number alone.

Q) Suppose we examine the compound O=C(O)c1ccccc1O ; what solvation free energy, 298 K value has been reported?
A) -10.1

Q) Same for Clc1c(Cl)c(Cl)c(Cl)c(Cl)c1Cl
A) -10.2

Q) Same for C1COCCO1
A) -5.01

Q) Same for O=[N+]([O-])c1cccc(Cl)c1Cl
A) -9.93

Q) Same for Cc1cccc(C(=O)O)c1
A) -9.9
